FYI, the data here is from ChEMBL document CHEMBL1201862.

assay.metric: GI50 (µM)
Give just the number in µM; leave the unit off.

Reading of GI50 for CCC(C)C(=O)OCC(=O)c1ccc(-c2ccccc2)cc1 (centres undefined) with HCT-15: 18.1

Reading of GI50 for `N#Cc1cc2c(cc1C#N)SCCSCCCSCCS2` with HCT-15: 14.6

---

system: SK-MEL-28; experiment: NCI tumour cell line growth inhibition, 48 h
Calls of active or inactive are those of the source. Cut-off read from the data, not from the text of the source: active = GI50 up to about 1.1 µM and inactive = higher.
Answer with one of the outcomes given here: class 1 for active, class 0 for inactive

Request: So what was the verdict on `CSc1c(C(=O)Nc2ccc(Cl)cc2)c(N)n(N)c(=O)c1C#N` in this test?
Response: class 0

Request: So what was the verdict on `NNC(=O)C(=O)NN=C(C(Cl)(Cl)CO)C(Cl)(Cl)CO` in this test?
Response: class 0

Request: So what was the verdict on CCC1CN2CCc3cc(OC)c(OC)cc3C2CC1CC1c2cc(OC)c(OC)cc2CCN1C(=O)C1CCCN1 (stereo unspecified) in this test?
Response: class 0

Request: So what was the verdict on `Nc1nc2c(C(=O)NCc3cccs3)nnn2c2cccc(Cl)c12` in this test?
Response: class 0

Request: So what was the verdict on `CCn1c(=O)c2cn[nH]c2n(C)c1=O` in this test?
Response: class 0

Request: So what was the verdict on Cc1c2c(c(O)c3c(O)cccc13)C(=O)C1(O)C(=O)C(C(=O)NCNc3ccc(C(N)=O)cn3)=C(O)C(N(C)C)C1C2 (stereo unspecified) in this test?
Response: class 0

Request: So what was the verdict on `Cc1ccc2nc(Cl)c(/C=N/N3C(=O)/C(=C/c4cccc([N+](=O)[O-])c4)N=C3c3ccccc3)cc2c1` in this test?
Response: class 0

Request: So what was the verdict on `CCOC(=O)c1cc(Br)c(-c2cc(C)no2)[nH]1` in this test?
Response: class 0

Request: So what was the verdict on `Cn1c(=O)nc2n(-c3ccc(Cl)cc3)c3cc(Cl)ccc3nc-2c1=O` in this test?
Response: class 0

Request: So what was the verdict on `OCCCCCCOc1ccc(-c2cc(-c3ccccn3)nc(-c3ccccn3)c2)cc1` in this test?
Response: class 1

Request: So what was the verdict on O=C(OC1CC(n2cc(F)c(=O)[nH]c2=O)OC1CSC(=O)c1ccccc1)c1ccccc1 (stereo unspecified) in this test?
Response: class 0

Request: So what was the verdict on NC(=S)c1cccc(C2Nc3ccccc3O2)c1 (stereo unspecified) in this test?
Response: class 0

Request: So what was the verdict on `CN(C)CCCc1c[nH]c2ccccc12` in this test?
Response: class 0

Request: So what was the verdict on `O=C(Nc1ccccc1[N+](=O)[O-])c1ccccc1` in this test?
Response: class 0

Request: So what was the verdict on `CCN(CC)Cc1cc(Nc2c3ccccc3nc3c4ccccc4n(C)c23)ccc1O` in this test?
Response: class 0

Request: So what was the verdict on O=C1CSC(c2cc3cc(Br)ccc3nc2Cl)N1c1ccc(Cl)cc1 (stereo unspecified) in this test?
Response: class 0

Request: So what was the verdict on COc1ccc(/C=C2\N/C(=N\N=C/C(O)C(O)C(O)C(O)CO)NC2=O)cc1 (stereo unspecified) in this test?
Response: class 0

Request: So what was the verdict on COc1ccc(-c2cc(-c3ccccc3)n(C3OC(COC(C)=O)C(OC(C)=O)C(OC(C)=O)C3OC(C)=O)c(=S)c2C#N)cc1 (stereo unspecified) in this test?
Response: class 0

Request: So what was the verdict on C=C1C(=O)OC2CC1CCC1(C)OC1CCC(C)=CCCC2(C)O (stereo unspecified) in this test?
Response: class 0

Request: So what was the verdict on `O=C(Nn1c(-c2ccccc2)nc2ccccc2c1=O)c1ccc(CS)cc1` in this test?
Response: class 0

Request: So what was the verdict on `O=C(NNC(=O)c1ccccc1SSc1ccccc1C(=O)NNC(=O)c1ccccc1S)c1ccccc1S` in this test?
Response: class 0

---

system: XF498; test: NCI tumour cell line growth inhibition, 48 h
Active and inactive are the calls of the source. Cut-off read from the data, not from the text of the source: active = GI50 up to about 1.1 µM and inactive = higher.
Answer with one of the outcomes given here: yes (active), no (inactive)

Request: So what was the verdict on CC1NC(=O)C(C)C(c2ccccc2)N(N=O)C1c1ccccc1 (stereo not drawn) in this test?
Response: no

Request: So what was the verdict on `CCN(CC)CCCN(c1cc(OC)cc2nccnc12)S(=O)(=O)c1ccc(C)cc1` in this test?
Response: no

Request: So what was the verdict on `NC(=O)C(N)=O` in this test?
Response: no

Request: So what was the verdict on CC(=O)OC1CC2Oc3ccc(C)cc3C(C)(O2)C1=O (stereo not drawn) in this test?
Response: no

Request: So what was the verdict on COC1(OC)CCC2C1C1CCC(OC)(OC)C21 (stereo not drawn) in this test?
Response: no

Request: So what was the verdict on CC12CCC(=O)N1c1cc([N+](=O)[O-])ccc1N2 (stereo not drawn) in this test?
Response: no

Request: So what was the verdict on `FC(F)(F)c1nc(-c2ccccc2)oc1Sc1nnc(Sc2oc(-c3ccccc3)nc2C(F)(F)F)s1` in this test?
Response: no

Request: So what was the verdict on Cn1cnc([N+](=O)[O-])c1Sc1nc(N)nc2c1ncn2C1OC(CO)C(O)C1O (stereo not drawn) in this test?
Response: no

Request: So what was the verdict on `NNC(=O)C(=O)NN=C(C(Cl)(Cl)CO)C(Cl)(Cl)CO` in this test?
Response: no

Request: So what was the verdict on `CC(C)(Oc1ccc(C(=O)c2ccc(Cl)cc2)cc1Cl)C(=O)N1CCN(c2ccccc2)CC1` in this test?
Response: no

Request: So what was the verdict on `CN(C)C(=S)/N=c1\ssc(=S)n1Cc1cccnc1` in this test?
Response: no

Request: So what was the verdict on `COCCOc1cc(C)cc(/C=C(C)/C=C/C2=C(C)CCCC2(C)C)n1` in this test?
Response: no

Request: So what was the verdict on `COc1ccc(Br)c(N/N=C2\CCCNC2=O)c1` in this test?
Response: no

Request: So what was the verdict on `O=C(Nc1ccccc1[N+](=O)[O-])c1ccccc1` in this test?
Response: no

Request: So what was the verdict on O=C1NC2C(O)CCCCC2C12CCCCC2 (stereo not drawn) in this test?
Response: no

Request: So what was the verdict on `N#Cc1ccccc1Nc1ccccc1S` in this test?
Response: no

Request: So what was the verdict on `Cn1c(=O)nc2n(-c3ccc(Cl)cc3)c3cc(Cl)ccc3nc-2c1=O` in this test?
Response: no

Request: So what was the verdict on COC(=O)[C@@]12C=CC(=O)[C@H]3C[C@@H](C(C(C)C)C1)[C@]32OC (stereo partly drawn) in this test?
Response: no

Request: So what was the verdict on `COC(=O)/N=C(\NC(=O)OC)Nc1ccc(Oc2ccccc2)cc1NC=O` in this test?
Response: yes

Request: So what was the verdict on `CCCCN(CCCC)C(=O)C(=O)CC(=O)c1ccc(Br)cc1` in this test?
Response: no

Request: So what was the verdict on `COc1cc2c(ccc3c4cc(OC)c(OC)cc4c[n+](C)c23)cc1O` in this test?
Response: no

Request: So what was the verdict on C=CCCN1CCc2c([nH]c3ccccc23)C1C(=O)O (stereo not drawn) in this test?
Response: no

Request: So what was the verdict on `CO/C=C(\Br)c1ccc2c(c1)OCO2` in this test?
Response: no

---

test system: SK-MEL-2; test: NCI tumour cell line growth inhibition, 48 h
Active and inactive are the calls of the source. Rule as the data show it: active = GI50 up to about 1.1 µM and inactive = higher.
Answer with one of the outcomes given here: Y for active, N for inactive

Request: So what was the verdict on C=C1CC(COc2ccc3c(C)c(C)c(=O)oc3c2C)(c2ccccc2)OC1=O (stereo not given) in this test?
Response: N

Request: So what was the verdict on Oc1ccc2c3c1OC1c4[nH]c5c(c4CC4(O)C(C2)N(CC2CC2)CC[C@]314)CC1(O)C2Cc3ccc(O)c4c3[C@@]1(CCN2CC1CC1)C5O4 (stereo not given in full) in this test?
Response: N

Request: So what was the verdict on Clc1ccc(C2NN=C3c4ccccc4OCC32)cc1 (stereo not given) in this test?
Response: N

Request: So what was the verdict on `O=[N+]([O-])c1ccc2nc(Cl)n[n+]([O-])c2c1` in this test?
Response: N

Request: So what was the verdict on `NC(=O)C(N)=O` in this test?
Response: N

Request: So what was the verdict on `Clc1ccc(Nc2nc(Cl)c3nc[nH]c3n2)cc1Cl` in this test?
Response: N

Request: So what was the verdict on `C=CCCCCn1c2ccccc2c2c(C)c3c[n+](C)ccc3c(C)c21` in this test?
Response: Y

Request: So what was the verdict on `O=C(/C=C/c1ccc(OCc2ccccc2)cc1)NCc1ccc(C(=O)NCc2ccccc2)cc1` in this test?
Response: N

Request: So what was the verdict on COC(=O)[C@@]12C3=NO[C@]1(C(=O)OC)C(O[Si](C)(C)C(C)(C)C)[C@@H](OC(C)=O)[C@@H](OC(C)=O)[C@@H]2[C@@H](OCc1ccccc1)CC3 (stereo not given in full) in this test?
Response: N

Request: So what was the verdict on CN1CCC23c4c5ccc(O)c4OC2c2[nH]c4ccccc4c2CC3(O)C1C5 (stereo not given) in this test?
Response: N

Request: So what was the verdict on COC(=O)c1ccc(C)cc1C1CN=NC12Cc1cccc(C)c1C2=O (stereo not given) in this test?
Response: N

Request: So what was the verdict on CCC1CN2CCc3cc(OC)c(OC)cc3C2CC1CC1c2cc(OC)c(OC)cc2CCN1C(=O)C1CCCN1 (stereo not given) in this test?
Response: N

Request: So what was the verdict on C[C@]12Cc3cn[nH]c3C(=O)C1CC[C@@H]1C2CC[C@@]2(C)C1CC[C@@H]2O (stereo not given in full) in this test?
Response: N

Request: So what was the verdict on CCOC(=O)C1S/C(=N\c2cccc(Cl)c2C)N=C1C (stereo not given) in this test?
Response: N

Request: So what was the verdict on `CCN(CC)CCNc1ccc2nnn3c4ccc(O)cc4c(=O)c1c23` in this test?
Response: N

Request: So what was the verdict on Cc1c2c(c(O)c3c(O)cccc13)C(=O)C1(O)C(=O)C(C(=O)NCNc3ccc(C(N)=O)cn3)=C(O)C(N(C)C)C1C2 (stereo not given) in this test?
Response: N

Request: So what was the verdict on `Cc1n(Cc2ccccc2)c2c([n+]1C)C(=O)c1ccccc1C2=O` in this test?
Response: Y

Request: So what was the verdict on `C=CCN1C[C@@H](C)N([C@@H](c2ccc(C(=O)N(CC)CC)cc2)c2cccc(OC)c2)C[C@@H]1C` in this test?
Response: N

Request: So what was the verdict on `COc1ccc(/N=C(C)/C(C)=N/c2ccc(OC)cc2)cc1` in this test?
Response: N

Request: So what was the verdict on CCOC(OCC)C(CC)[Se]c1ccccc1 (stereo not given) in this test?
Response: N
